assay: qHTS for Inhibitors of the Aldehyde Dehydrogenase Family (ALDH1A2, ALDH1A3, ALDH2, ALDH3A1) (AID 2061307); settings: ALDH inhibition qHTS; series mostly up to 50.3 µM; also: nearly all actives have a fitted effect of over 50% in size
Results filed as inconclusive are left out. The source made the active and inactive calls. Calls follow the shape of the dose curve; as a rule, active = well fitted inhibition curve with a large enough effect; inconclusive = small, poorly fitted or top-dose-only effect; inactive = no such curve, though single readings can be large or run the other way.
Outcome codes: 1 = active, -1 = inactive

# Smiles str, Group
rows = [
    ("O=C(N/N=C/c1ccc(Sc2ccccn2)o1)c1ccccc1", 1),
    ("Nc1nc(NCc2ccccc2)c2ccccc2n1", 1),
    ("COc1ccc(NC(=O)c2cccnc2)cc1S(=O)(=O)Nc1ccc(Br)cc1", -1),
]

###

Experiment: BET inhibitor-based combinations targeting novel dependencies in MECOM-rearranged (r) AML: AML-191 cell line (AID 2202236; also: nearly all actives have a fitted effect of over 35% in size; also: potency is read from the fitted curve at half-maximal effect)
Details: AML-191 viability, CellTiter-Glo luminescence, 48 h; series mostly up to 46 µM
Experimental: Ecotropic viral insertion site 1 (EVI1) is located on chromosome 3q26.2 as part of the MECOM (MDS and EVI1 complex) locus. […] A collection of 2480 mechanistically annotated dugs (MIPE v5.0) was used to screen four 3q26.2 rearranged AML cell lines and three non-3q26.2 rearranged AML cell lines. […] Cell viability was determined by luminescence based, Cell Titer Glo assay (Promega). […] Luminescence readings were taken using a Viewlux (PerkinElmer) with a 2 s exposure time per plate. […]
Results filed as inconclusive are left out. Calls of active or inactive are those of the source. Calls follow the shape of the dose curve; as a rule, active = well fitted inhibition curve with a large enough effect; inconclusive = small, poorly fitted or top-dose-only effect; inactive = flat fitted curve, though single readings scatter.

# Compound, Potency
data = [
    ("Cc1nc2cccc(N)c2c(=O)n1C1CCC(=O)NC1=O (centres undefined)", "inactive"),
    ("N#Cc1c(N(CC(=O)O)CC(=O)O)sc(C(=O)O)c1CC(=O)O", "inactive"),
    ("Cc1ccc(NC(=O)[C@H]2CCCN(C(=O)c3c(C)cccc3F)[C@H]2c2ccc(NC3CCCC3)cc2)cc1C(F)(F)F", "inactive"),
    ("N=C(N)c1ccc2nc(-c3cc(CC(=O)N[C@@H](CC(=O)O)C(=O)O)cc(-c4cc(S(N)(=O)=O)ccc4O)c3O)[nH]c2c1", "inactive"),
    ("Cn1cc(C2=C(c3cn(C)c4cc([N+](=O)[O-])ccc34)C(=O)NC2=O)c2ccccc21", "0.662 µM (active)"),
    ("CCNC(=O)Nc1ccc(Oc2ncnc(N)c2/C=N/OC)cc1Cl", "16.6 µM (active)"),
    ("Cc1cc(/C=c2/sc3nc4ccccc4n3c2=O)c(C)n1-c1ccccc1", "16.6 µM (active)"),
    ("Nc1nc(OC(c2ccc(-c3cccc(F)c3)cc2)C(F)(F)F)cc(-c2ccc(C[C@H](N)C(=O)O)cc2)n1 (some centres undefined)", "inactive"),
    ("C#CCN(C)CC1=Cc2ccccc2Oc2ccccc21", "inactive"),
    ("Cc1c(C(=O)Nc2ccc(Oc3ccnc4[nH]cc(-c5ccccc5)c34)c(F)c2)c(=O)n(-c2ccc(F)cc2)n1C", "0.59 µM (active)"),
    ("c1ccc(-c2nn3c(c2-c2ccnc4cc(OCCN5CCOCC5)ccc24)CCC3)nc1", "18.6 µM (active)"),
    ("CC(=O)c1ccc2c(c1)c1cc(C(C)=O)ccc1n2CCNC(C)C", "0.833 µM (active)"),
    ("COc1cc(C(=O)NC(N)=Nc2ccc(C)c(NC(=O)c3ccc(-c4ccccc4)cc3)c2)cc(OC)c1OC", "18.6 µM (active)"),
    ("NS(=O)(=O)Oc1ccc2c3c(c(=O)oc2c1)CCCCC3", "inactive"),
]
